tgt: T1, Lsb1, P53281
T1 sequence (P53281 45-122, looked up): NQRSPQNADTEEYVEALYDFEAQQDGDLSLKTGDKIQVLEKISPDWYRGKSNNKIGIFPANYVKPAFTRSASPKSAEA
testDescription: SPOT array
recordedConditions: median of control spots 388
List of SPOT intensity values.
Reply with just the number.

Form field SPOT intensity, entry `KRKRFNLLLPKPYLT` : 0

Form field SPOT intensity, entry `NRPAIRIPSLKKPAL` : 467

Form field SPOT intensity, entry `QGYPRQPQRPQRYHP` : 1

Form field SPOT intensity, entry `GDHPKGPPPPPPPPD` : 0

Form field SPOT intensity, entry `VQQDSLPKLPFRSWG` : 399

Form field SPOT intensity, entry `ALFRLSFFFPLDPAY` : 49
